Data provenance is the supplement of paper PMC10307832.

# Test system: NCI-H1650
# test_method_notes: relative viability (nuclei count vs DMSO), 5 days (fraction); higher = more cells survive
# stated_conditions: first compound 2.53 µM
endpoint: relative viability

# count of solved cases: 3
[
  {
    "compound": "C=C1C(=O)O[C@@H](CCCCCCCC)[C@@H]1C(=O)O [C-75] + CC1(C)CCC(c2ccc(Cl)cc2)=C(CN2CCN(c3ccc(C(=O)NS(=O)(=O)c4ccc(N[C@H](CCN5CCOCC5)CSc5ccccc5)c(S(=O)(=O)C(F)(F)F)c4)cc3)CC2)C1 [Navitoclax] (partner 0.5 µM)",
    "endpoint": "relative viability",
    "result": 1.36
  },
  {
    "compound": "C=C1C(=O)O[C@@H](CCCCCCCC)[C@@H]1C(=O)O [C-75] + CS(=O)(=O)N1CCN(Cc2cc3nc(-c4cccc5[nH]ncc45)nc(N4CCOCC4)c3s2)CC1 [Pictilisib] (partner 1 µM)",
    "endpoint": "relative viability",
    "result": 0.474
  },
  {
    "compound": "Oc1nc(-c2ccc(C(F)(F)F)cc2)nc2c1CSCC2 [XAV939] + COc1cccc2cc(-c3nc([C@H]4CC[C@H](C(=O)O)CC4)n4ncnc(N)c34)[nH]c12 [OSI-027] (partner 0.5 µM)",
    "endpoint": "relative viability",
    "result": 0.443
  }
]

Problem: Sample Oc1nc(-c2ccc(C(F)(F)F)cc2)nc2c1CSCC2 [XAV939] + CC(C)C[C@H](NC(=O)[C@H](Cc1ccccc1)NC(=O)c1cnccn1)B(O)O [Bortezomib] (partner 0.002 µM) — what was its relative viability?
Result: 0.215

Problem: Sample C=C1C(=O)O[C@@H](CCCCCCCC)[C@@H]1C(=O)O [C-75] + COc1cc2c(Oc3ccc(NC(=O)C4(C(=O)Nc5ccc(F)cc5)CC4)cc3F)ccnc2cc1OCCCN1CCOCC1 [Foretinib] (partner 0.25 µM) — what was its relative viability?
Result: 1.11

Problem: Sample Oc1nc(-c2ccc(C(F)(F)F)cc2)nc2c1CSCC2 [XAV939] + CCNC(=O)c1noc(-c2cc(C(C)C)c(O)cc2O)c1-c1ccc(CN2CCOCC2)cc1 [Luminespib] (partner 0.01 µM) — what was its relative viability?
Result: 0.197

Problem: Sample Oc1nc(-c2ccc(C(F)(F)F)cc2)nc2c1CSCC2 [XAV939] + CC1(C)CCC(c2ccc(Cl)cc2)=C(CN2CCN(c3ccc(C(=O)NS(=O)(=O)c4ccc(N[C@H](CCN5CCOCC5)CSc5ccccc5)c(S(=O)(=O)C(F)(F)F)c4)cc3)CC2)C1 [Navitoclax] (partner 0.5 µM) — what was its relative viability?
Result: 0.653

----------
# Tested on: NCI-H1395
# test_method_notes: relative viability (nuclei count vs DMSO), 5 days (fraction); higher = more cells survive
# stated_conditions: first compound 0.1265 µM
endpoint: relative viability

# count of solved cases: 2
[
  {
    "compound": "O=C(O)c1ccc(-c2c[nH]c3ncc(-c4ccccc4)cc23)cc1C1CCCC1 + CS(=O)(=O)N1CCN(Cc2cc3nc(-c4cccc5[nH]ncc45)nc(N4CCOCC4)c3s2)CC1 [Pictilisib] (partner 1 µM)",
    "relative viability": 0.691
  },
  {
    "compound": "O=C(O)c1ccc(-c2c[nH]c3ncc(-c4ccccc4)cc23)cc1C1CCCC1 + NC(=O)Nc1cc(-c2cccc(F)c2)sc1C(=O)N[C@H]1CCCNC1 [AZD7762] (partner 0.2 µM)",
    "relative viability": 0.416
  }
]

Now turn to the next compound.
Problem: Sample O=C(O)c1ccc(-c2c[nH]c3ncc(-c4ccccc4)cc23)cc1C1CCCC1 + CCNC(=O)c1noc(-c2cc(C(C)C)c(O)cc2O)c1-c1ccc(CN2CCOCC2)cc1 [Luminespib] (partner 0.01 µM) — what was its relative viability?
Result: 0.636

----------
Quick reference: relative viability of the listed items.
# Test system: SW 1573
# test_method_notes: relative viability (nuclei count vs DMSO), 5 days (fraction); higher = more cells survive
# stated_conditions: first compound 0.08 µM

[
  {
    "compound": "Oc1nc(-c2ccc(C(F)(F)F)cc2)nc2c1CSCC2 [XAV939] + O=C(CCCCCCC(=O)Nc1ccccc1)NO [Vorinostat] (partner 1 µM)",
    "result": 0.922
  },
  {
    "compound": "C=C1C(=O)O[C@@H](CCCCCCCC)[C@@H]1C(=O)O [C-75] + Cc1cc(Nc2cc(N3CCN(C)CC3)nc(Sc3ccc(NC(=O)C4CC4)cc3)n2)n[nH]1 [Tozasertib] (partner 0.1 µM)",
    "result": 0.268
  },
  {
    "compound": "Oc1nc(-c2ccc(C(F)(F)F)cc2)nc2c1CSCC2 [XAV939] + CC(=O)Nc1cccc(-n2c(=O)n(C3CC3)c(=O)c3c(Nc4ccc(I)cc4F)n(C)c(=O)c(C)c32)c1 [Trametinib] (partner 0.02 µM)",
    "result": 0.63
  },
  {
    "compound": "Oc1nc(-c2ccc(C(F)(F)F)cc2)nc2c1CSCC2 [XAV939] + COc1cccc2cc(-c3nc([C@H]4CC[C@H](C(=O)O)CC4)n4ncnc(N)c34)[nH]c12 [OSI-027] (partner 0.5 µM)",
    "result": 0.602
  },
  {
    "compound": "C=C1C(=O)O[C@@H](CCCCCCCC)[C@@H]1C(=O)O [C-75] + CC(=O)c1c(C)c2cnc(Nc3ccc(N4CCNCC4)cn3)nc2n(C2CCCC2)c1=O [Palbociclib] (partner 0.5 µM)",
    "result": 0.357
  },
  {
    "compound": "C=C1C(=O)O[C@@H](CCCCCCCC)[C@@H]1C(=O)O [C-75] + CCNC(=O)c1noc(-c2cc(C(C)C)c(O)cc2O)c1-c1ccc(CN2CCOCC2)cc1 [Luminespib] (partner 0.01 µM)",
    "result": 0.168
  },
  {
    "compound": "Oc1nc(-c2ccc(C(F)(F)F)cc2)nc2c1CSCC2 [XAV939] + CS(=O)(=O)CCNCc1ccc(-c2ccc3ncnc(Nc4ccc(OCc5cccc(F)c5)c(Cl)c4)c3c2)o1 [Lapatinib] (partner 2 µM)",
    "result": 1.11
  },
  {
    "compound": "Oc1nc(-c2ccc(C(F)(F)F)cc2)nc2c1CSCC2 [XAV939] + Cc1nc(Nc2ncc(C(=O)Nc3c(C)cccc3Cl)s2)cc(N2CCN(CCO)CC2)n1 [Dasatinib] (partner 0.075 µM)",
    "result": 0.605
  },
  {
    "compound": "Oc1nc(-c2ccc(C(F)(F)F)cc2)nc2c1CSCC2 [XAV939] + CC(=O)c1c(C)c2cnc(Nc3ccc(N4CCNCC4)cn3)nc2n(C2CCCC2)c1=O [Palbociclib] (partner 0.5 µM)",
    "result": 0.414
  },
  {
    "compound": "Oc1nc(-c2ccc(C(F)(F)F)cc2)nc2c1CSCC2 [XAV939] + COc1cc2c(Oc3ccc(NC(=O)C4(C(=O)Nc5ccc(F)cc5)CC4)cc3F)ccnc2cc1OCCCN1CCOCC1 [Foretinib] (partner 0.25 µM)",
    "result": 1.2
  }
]

Problem: Provide the documented relative viability with SW 1573 as the system for Oc1nc(-c2ccc(C(F)(F)F)cc2)nc2c1CSCC2 [XAV939] + CCNC(=O)c1noc(-c2cc(C(C)C)c(O)cc2O)c1-c1ccc(CN2CCOCC2)cc1 [Luminespib] (partner 0.01 µM)
Result: 0.691

Problem: Provide the documented relative viability with SW 1573 as the system for Oc1nc(-c2ccc(C(F)(F)F)cc2)nc2c1CSCC2 [XAV939] + Cc1nc(NC(=O)N2CCC[C@H]2C(N)=O)sc1-c1ccnc(C(C)(C)C(F)(F)F)c1 [Alpelisib] (partner 2 µM)
Result: 0.712

----------
# Tested on: PC-3 [JPC-3]
# test_method_notes: relative viability (nuclei count vs DMSO), 5 days (fraction); higher = more cells survive
# stated_conditions: first compound 0.4 µM
Each record is given Met if its reported relative viability is strictly below 1. Records at or above 1 are given Not met.

Past entries and their recorded results:
[
  {
    "compound": "O=C(O)c1ccc(-c2c[nH]c3ncc(-c4ccccc4)cc23)cc1C1CCCC1 + Nc1ncn([C@H]2C[C@H](O)[C@@H](CO)O2)c(=O)n1 [Decitabine] (partner 2 µM)",
    "class_name": "Met"
  },
  {
    "compound": "O=C(O)c1ccc(-c2c[nH]c3ncc(-c4ccccc4)cc23)cc1C1CCCC1 + CC1(C)CCC(c2ccc(Cl)cc2)=C(CN2CCN(c3ccc(C(=O)NS(=O)(=O)c4ccc(N[C@H](CCN5CCOCC5)CSc5ccccc5)c(S(=O)(=O)C(F)(F)F)c4)cc3)CC2)C1 [Navitoclax] (partner 0.5 µM)",
    "class_name": "Met"
  },
  {
    "compound": "O=C(O)c1ccc(-c2c[nH]c3ncc(-c4ccccc4)cc23)cc1C1CCCC1 + C[C@@H](Oc1cc(-c2cnn(C3CCNCC3)c2)cnc1N)c1c(Cl)ccc(F)c1Cl [Crizotinib] (partner 1 µM)",
    "class_name": "Met"
  },
  {
    "compound": "O=C(O)c1ccc(-c2c[nH]c3ncc(-c4ccccc4)cc23)cc1C1CCCC1 + Cc1nc(Nc2ncc(C(=O)Nc3c(C)cccc3Cl)s2)cc(N2CCN(CCO)CC2)n1 [Dasatinib] (partner 0.075 µM)",
    "class_name": "Not met"
  },
  {
    "compound": "O=C(O)c1ccc(-c2c[nH]c3ncc(-c4ccccc4)cc23)cc1C1CCCC1 + C[C@]1(O)C[C@@H](c2nc(-c3ccc4ccc(-c5ccccc5)nc4c3)c3c(N)nccn32)C1 [Linsitinib] (partner 1 µM)",
    "class_name": "Met"
  }
]

Now turn to the next compound.
Problem: A record lists O=C(O)c1ccc(-c2c[nH]c3ncc(-c4ccccc4)cc23)cc1C1CCCC1 + N=C(N)NC(=N)NCCc1ccccc1 [Phenformin] (partner 250 µM) . Is its relative viability below 1?
Result: Met
